Attribution: patent US12195427B2

STUDY TARGET: MASP-2 CCP2-SP (Homo sapiens (Human))
Sequence (O00187 445-686): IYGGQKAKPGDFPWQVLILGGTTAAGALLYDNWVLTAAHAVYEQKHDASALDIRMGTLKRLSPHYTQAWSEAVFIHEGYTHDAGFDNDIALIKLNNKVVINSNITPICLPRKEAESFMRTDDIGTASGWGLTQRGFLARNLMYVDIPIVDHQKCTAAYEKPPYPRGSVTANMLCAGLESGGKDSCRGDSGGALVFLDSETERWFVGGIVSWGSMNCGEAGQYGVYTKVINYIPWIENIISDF
Sequence (O00187 364-432 partner): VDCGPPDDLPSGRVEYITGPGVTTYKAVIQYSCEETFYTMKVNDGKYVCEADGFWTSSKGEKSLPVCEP
ASSAY PROTOCOL: MASP-2 co-crystallization, X-ray crystallography and structure analysis (H-bonds, van der Waals contacts)
Parameters: unit not given beside the values
RECORDED CONDITIONS: Table A2-1
Structures can show the parent of a compound that is named as a salt.
QUANTITY MEASURED: van der Waals contact distance, MASP-2 HIS 483 atom NE2
One number for each entry.

# COMPOUND, ASSAY VALUE
records = [
    ("C[C@H](NC(=O)[C@H]1Cc2c([nH]c3ccccc23)CN1)C(=O)NCc1ccc(C(=N)N)cc1", 3.53),
]

For each listed entry, give its van der Waals contact distance, MASP-2 HIS 483 atom NE2.
1. Cc1nc(N)ccc1CNC(=O)[C@H](C)NC(=O)[C@H]1C[C@H](Cc2ccc3ccccc3c2)CN1
2. Cc1cccc([C@H]2CN[C@@H](C(=O)N[C@@H](C)C(=O)NCc3ccc(N)nc3C)C2)c1 [compound 1257, Dihydrochloride]
3. C[C@H](NC(=O)[C@H]1C[C@@H](c2ccccc2)CCN1)C(=O)NCc1cnc2[nH]cc(Cl)c2c1

### Response
1. 3.82
2. 3.72
3. 3.76
